# Tested on: HL-60
# method_description: Cytotoxic activity against human HL60 cells after 48 hrs by MTT assay
# Format: functional, cell-based
# experimental_setup: HL-60, 48 h
The following compounds are listed with their measured IC50 values.
measurement_name: IC50

>>> df
                                   compound  recorded_measurement
0  COC(=O)C1=C2Nc3ccccc3[C@]23CCN2CC[C@H]1[C@@]1(O[C@H]1C)[C@@H]23               > 40 µM
1  CC[C@@]12C=Cn3c4c(c5ccccc53)CC[N+]([O-])(CCC1)[C@H]42 (stereo partly drawn)               > 40 µM
2  CC[C@@H]1CN2CC[C@]34c5ccccc5-n5c3c(cc(C(=O)O)c5=O)[C@H]1C[C@H]24               > 40 µM
